# Tested on: SR leukemia
# Run description: NCI-60 one-dose screen, 48 h (100 = growth as untreated, 0 = no growth, -100 = all killed)
# Experimental context: 10 µM unless noted
Compounds without any hit were thinned out: in the full panel of roughly 83,000, 20% have a hit.
Observation type: growth (%)
Express it in %; write the number only.

// below: answered molecules
COc1ccc(-c2nc3sc4c(c3c(=O)[nH]2)CCCC4)c2ccccc12	7.04
CC(C)OC(=O)NNC(=O)c1ccncc1	104
N#C/C(=C\c1ccc(Br)cc1)n1nnc2cc(Cl)c(Cl)cc21	10

Now look at this one.
// sample O=[N+]([O-])c1ccc(-c2cc3c(Nc4ccc(Sc5nc6ccccc6s5)c(Cl)c4)ncnc3s2)cc1 , its growth was 38.7

----------
# Test system: SF-268 CNS
# Run description: NCI-60 one-dose screen, 48 h (100 = growth as untreated, 0 = no growth, -100 = all killed)
# Experimental context: 10 µM unless noted
# Method: Cells are grown in 96 well plates and exposed to the test compound for 48 hours. Compounds are tested at a single concentration, which is 10^-5 M for most compounds. The reported endpoint is percent growth (GI% or GIPRCNT), where numbers from 0 - 100% represent growth inhibition, and numbers from -100% - 0 represent cell death. For example, a value of 40 represents 60% growth inhibition. A value of 0 means no net growth occurred over the course of the experiment. […]
This is part of a sample that, as a whole, favours compounds with a hit. Of some 83,000 tested, about 20% had one in any assay.
Observation type: growth (%)
Express it in %; write the number only.

// below: answered compounds
CNC(=O)c1cc(Oc2ccc3nc(Nc4cc(Cl)cc(Cl)c4)ccc3c2)ccn1	59.8
CCN1CCN(c2ccc(Nc3cc(-c4cccnc4Nc4c(Cl)c(OC)cc(OC)c4Cl)ncn3)cc2)CC1	65.1
Nc1c(-c2nc3ccccc3c(=O)[nH]2)nnn1-c1ccc(Cl)cc1	66.8

// sample CCCc1cc(=O)oc2c3c(c4c(c12)OC(C)(C)C=C4)O[C@@H](C)[C@H](C)C3=O , its growth was 86.4

// sample COc1ccc(/C=N/NC(=O)Cn2c(-c3ccc(S(C)(=O)=O)cc3)nc3cc(Cl)ccc32)cc1 , its growth was 45.2

----------
# Test system: HOP-92 NSCLC
# Run description: NCI-60 one-dose screen, 48 h (100 = growth as untreated, 0 = no growth, -100 = all killed)
# Experimental context: 10 µM unless noted
Compounds without any hit were thinned out: in the full panel of roughly 83,000, 20% have a hit. Calls of active or inactive are those of the source. The calls were made as follows: active = growth percent below 10; inactive = the rest.
Observation type: growth

// below: answered compounds
Fc1ccc(Nc2nc3nonc3nc2Nc2ccc(F)cc2)cc1	-30.5% (active)
CCCCN1CCN(c2ccc3nc(-c4ccc5nc(-c6cc(OC)c(OC)c(OC)c6)[nH]c5c4)[nH]c3c2)CC1	49.9% (inactive)
CCCNCC(=O)Nc1ccc(C(=O)OC(C)(C)CC)cc1	74.4% (inactive)
O=c1[nH]c(NCc2nnnn2-c2ccc(Br)cc2)nc2sc3c(c12)CCCC3	94.5% (inactive)

Now look at this one.
// sample O=C1c2ccccc2C2(c3ccc(O)cc3)c3ccccc3Oc3cccc1c32 (stereo not given) , its growth was 29.9% (inactive)

----------
# Test system: BT-549 breast
# Run description: NCI-60 one-dose screen, 48 h (100 = growth as untreated, 0 = no growth, -100 = all killed)
# Experimental context: 10 µM unless noted
This is part of a sample that, as a whole, favours compounds with a hit. Of some 83,000 tested, about 20% had one in any assay.
Observation type: growth (%)
Express it in %; write the number only.

Nc1ccc(S(=O)(=O)Nc2ccsc2-c2nc(-c3ccccc3)no2)cc1	59
Cl.[Pt].[c-]1ccccc1-c1ccccn1.c1ccc(P(c2ccccc2)C([PH+](c2ccccc2)c2ccccc2)[PH+](c2ccccc2)c2ccccc2)cc1	27
CC1=NN(c2cccc(Cl)c2)C(=O)/C1=C\c1cn(CC(O)CN2CCCCC2)c2ccccc12 (stereo not given)	96.1
COc1ccc(N(C)c2nc(Cl)nc3cnn(C)c23)cc1	-13.9
C=C(C)[C@@H]1CC[C@]2(CNCCO)CC[C@]3(C)[C@H](CC[C@@H]4[C@@]5(C)CCC(N)[C@@](C)(CO)[C@@H]5CC[C@]43C)[C@@H]12 (stereo not given in full)	68.6
COc1ccc(CN2C(=O)/C(=C\c3cc(OC)c(OC)c(OC)c3)c3ccccc32)cc1	24.5
CCN(CC)CCOc1ccc(/C(=C(\C)c2ccc(F)c(OC)c2)c2ccc(Cl)cc2)cc1	59.7
COc1cc(C(=O)/C=C/c2c(-c3ccc(F)cc3)nc3ncccn23)cc(OC)c1OC	32.5

// sample COc1cc2nc(Nc3ccc(F)cc3)nc(N)c2cc1OC , its growth was 93.9

// sample CNC(=O)c1cc(Oc2ccc3nc(NC(=O)Nc4cc(C(F)(F)F)cc(C(F)(F)F)c4)sc3c2)ccn1 , its growth was -46.9

----------
# System: TK-10 renal
# Run description: NCI-60 one-dose screen, 48 h (100 = growth as untreated, 0 = no growth, -100 = all killed)
# Experimental context: 10 µM unless noted
About 83,000 compounds went through this panel and 20% of them were active in at least one assay; those are over-represented in the sample as a whole.
Assign yes (1) whenever growth does not fall below 80%; assign no (0) whenever it does.

Cc1nc(Nc2ccc(NC(=S)Nc3ccccc3)cc2)c2ccccc2n1	yes (1)
COc1ccc(-n2sc(=O)n(Cc3ccc(COC(=O)C(C)c4ccc(CC(C)C)cc4)cc3)c2=O)cc1 (stereo unspecified)	no (0)
CN(C)CCCCNc1ccc(NCCCCN(C)C)c2c1C(=O)c1c(O)ccc(O)c1C2=O	no (0)
CCCCN1CCN(c2ccc3nc(-c4ccc5nc(-c6ccc(OCC)c(OCC)c6)[nH]c5c4)[nH]c3c2)CC1	no (0)
C[C@@H]1C(=O)N(C[C@H](Cc2ccccc2)NC(=O)OCc2ccccc2)[C@]1(Cc1ccccc1)C(=O)OC(C)(C)C	no (0)

Task: Reported growth at or above 80%? COc1ccc(/C=C(\C#N)n2nnc3ccccc32)cc1
Result: no (0)

Task: Reported growth at or above 80%? CC1(C)N=C(N)N=C(N)N1c1ccc(Cl)c(Cl)c1
Result: no (0)

Task: Reported growth at or above 80%? C=C(C)[C@@H]1CC[C@@]2(C(=O)O)CC[C@]3(C)C(CCC4[C@@]5(C)CCC(OS(=O)(=O)c6ccccc6)C(C)(C)C5CC[C@]43C)C12 (stereo partly specified)
Result: no (0)

Task: Reported growth at or above 80%? OC(COc1cccc2ccccc12)CN1CCN(c2ccccc2)CC1 (stereo unspecified)
Result: yes (1)

Task: Reported growth at or above 80%? CN=C1C=CC(=C(c2ccc(N(C)C)cc2)c2ccc(N(C)C)cc2)C=C1
Result: no (0)

Task: Reported growth at or above 80%? O=C1c2cccc3c(-c4ccc(-c5nc6c7ccccc7c7ccccc7c6[nH]5)cc4)ccc(c23)C(=O)N1CCN1CCNCC1
Result: yes (1)

Task: Reported growth at or above 80%? O=C(CCc1nc(-c2cccc(Cl)c2)no1)Nc1ccccn1
Result: yes (1)

Task: Reported growth at or above 80%? COc1ccc(C(=O)/C=C/C23c4ccccc4C(c4ccccc42)C2C(=O)NC(=O)C23)cc1 (stereo unspecified)
Result: yes (1)

Task: Reported growth at or above 80%? COc1ccc(-c2cc(-c3ccc(Nc4nc(Nc5ccccc5)nc(Nc5ccc(Cl)cc5)n4)cc3)nc(N)c2C#N)cc1
Result: no (0)

Task: Reported growth at or above 80%? COc1cc2ccccc2cc1C(=O)NC(=S)Nc1ccc(-c2nc3ccccc3[nH]2)cc1
Result: yes (1)

----------
# Tested on: LOX IMVI melanoma
# Run description: NCI-60 one-dose screen, 48 h (100 = growth as untreated, 0 = no growth, -100 = all killed)
# Experimental context: 10 µM unless noted
About 83,000 compounds went through this panel and 20% of them were active in at least one assay; those are over-represented in the sample as a whole. Activity calls are given as the source filed them. The calls were made as follows: active = growth percent below 10; inactive = the rest.
Observation type: growth

// below: answered compounds
NS(=O)(=O)Oc1ccc(-c2sc3cc(O)ccc3c2C(=O)c2ccc(OCCN3CCCCC3)cc2)cc1	34.4% (inactive)
O=C(/C=C/C12c3ccccc3C(c3ccccc31)C1C(=O)N(c3ccc(Cl)cc3)C(=O)C12)c1ccccn1 (stereo unspecified)	-89.4% (active)
C=C(C=O)[C@@H]1CC=C(C=O)CC1	-0.188% (active)

// sample O=C1C(Cl)C(c2ccccc2Cl)N1n1cnnc1 (stereo unspecified) , its growth was 91.4% (inactive)

// sample Cc1cc(=O)[nH]c(N/N=C/c2cc(Br)ccc2O)n1 , its growth was 9.27% (active)

// sample C[N+](C)(C)CCOC(OCC[N+](C)(C)C)(c1ccccc1)c1ccccc1 , its growth was 98.6% (inactive)

// sample COc1ccc(C2CC(c3cnccn3)=NN2)cc1OC (stereo unspecified) , its growth was 104% (inactive)
